# Tested on: HCMV/AD169
# assay comment: Antiviral effect, cytopathic effect (CPE) of HCMV in HFF cells
# Type: cell-based, Human cytomegalovirus (HCMV)
# experimental conditions: Human betaherpesvirus 5, AD169, HFF, read-out: EC50 (μM), antiviral effect
observation type: EC50

Given the entry CC(C)OC(=O)[C@H](C)NP(=O)(OC[C@H]1O[C@@H](n2ccc(N)nc2=O)[C@H](F)C1(C)CO)Oc1ccccc1 (stereo partly shown) [LCB-2187] , report its measured EC50.
< 0.05 µM
